Test system: U-251
Experiment: Induction of cell cycle arrest in human U251 cells assessed as cell accumulation at S phase at 0.5 uM incubated for 48 hrs by cell counter based assay (reference value: 28.85 to 33%)
Type: functional
ENDPOINT NAME: Activity

Here's what some known entries look like.
N#Cc1ccc(N2CCN(C(=S)NN=C(c3ccccn3)c3ccccn3)CC2)cc1 ... 41.4 - 42.6%
Fc1ccc(N2CCN(C(=S)N/N=C\c3ccccn3)CC2)cc1 ... 40.9 - 41%
S=C(NN=C(c1ccccn1)c1ccccn1)N1CCN(c2ccc(Cl)c(Cl)c2)CC1 ... 38.65 - 39.6%
S=C(N/N=C\c1ccc2ccccc2n1)N1CCN(c2ccc(Cl)c(Cl)c2)CC1 ... 39.55 - 44.1%
O=[N+]([O-])c1ccc(N2CCN(C(=S)N/N=C\c3ccccn3)CC2)cc1 ... 39.3 - 40.7%

Provide each entry's Activity from the list below.
1. O=[N+]([O-])c1ccc(N2CCN(C(=S)N/N=C\c3ccc4ccccc4n3)CC2)cc1
2. COc1ccc(N2CCN(C(=S)N/N=C\c3ccccn3)CC2)cc1
3. FC(F)(F)c1ccc(N2CCN(C(=S)N/N=C\c3ccc4ccccc4n3)CC2)nc1

Response:
1: 33.15 - 36.3%; 2: 38.25 - 41.5%; 3: 43.2 - 43.3%

* * *

Experiment: Selectivity index, ratio of IC50 for human NHDF cells to IC50 for human HCT116 cells expressing wild type p53
ENDPOINT NAME: Ratio IC50
Answers are plain numbers.

These recorded examples may help you get a feel for the data.
S=C(N/N=C\c1ccc2ccccc2n1)N1CCSCC1 ... 0.71
CN(C)C(=S)NN=C(c1ccccn1)c1ccccn1 ... 15349.59
S=C(N/N=C\c1cnc2ccccc2n1)N1CCN(c2ccc(Cl)c(Cl)c2)CC1 ... 20.06
O=[N+]([O-])c1ccc(N2CCN(C(=S)N/N=C\c3ccccn3)CC2)cc1 ... 44.59

Now for a further compound.
Prompt: I would be grateful if you could share the reported Ratio IC50 for FC(F)(F)c1ccc(N2CCN(C(=S)N/N=C\c3ccc4ccccc4n3)CC2)cc1 .
Response: 86.79

* * *

Experiment: Selectivity index, ratio of IC50 for human NHDF cells to IC50 for human MCF7 cells
ENDPOINT NAME: Ratio IC50
Numbers only.

Below, each entry is followed by its recorded Ratio IC50 result.
O=[N+]([O-])c1ccc(N2CCN(C(=S)N/N=C\c3ccc4ccccc4n3)CC2)cc1 ... 10.37
S=C(N/N=C\c1cnc2ccccc2n1)N1CCN(c2ccc(Cl)c(Cl)c2)CC1 ... 42.28
FC(F)(F)c1ccc(N2CCN(C(=S)N/N=C\c3ccc4ccccc4n3)CC2)cc1 ... 184.01
N#Cc1ccc(N2CCN(C(=S)NN=C(c3ccccn3)c3ccccn3)CC2)cc1 ... 362
CN(C)C(=S)NN=C(c1ccccn1)c1ccccn1 ... 16561.4
O=[N+]([O-])c1ccc(N2CCN(C(=S)N/N=C\c3ccccn3)CC2)cc1 ... 644.67
S=C(N/N=C\c1ccc2ccccc2n1)N1CCN(c2ccc(Cl)c(Cl)c2)CC1 ... 189.7
COc1ccc(N2CCN(C(=S)N/N=C\c3ccc4ccccc4n3)CC2)cc1 ... 9.03

Please report Ratio IC50 for every entry that follows.
1. S=C(NN=C(c1ccccn1)c1ccccn1)N1CCN(c2ccc(Cl)c(Cl)c2)CC1
2. S=C(NN=C(c1ccccn1)c1ccccn1)N1CCSCC1
3. FC(F)(F)c1ccc(N2CCN(C(=S)N/N=C\c3ccc4ccccc4n3)CC2)nc1

Response:
1: 181.01; 2: 55.02; 3: 233.33
